- System: PARG in HeLa cell line
- Measurement notes: PARG cell assay (PAR chain immunofluorescence after MMS)
- Type: cell-based
- Conditions used: Homo sapiens; HeLa cells, MMS 50 μg/mL; read-out: PARG Cell IC50 Geomean
pIC50: −log10 of the molar value.
Could you label it Condition met if measured pIC50 is 6 or higher, and Condition not met otherwise?

Please review the entries below; each comes with its answer.
Molecule | Discrete label
Cc1cc(Cn2c(=O)c3cc(S(=O)(=O)NC4(C)CC4)ccc3n(CCN3CCOCC3)c2=O)on1 [Example 276] | Condition met
Cn1cc(Cn2c(=O)c3cc(S(=O)(=O)NC4(C)CC4)ccc3n(CC3CC3)c2=O)cn1 [Example 174] | Condition met
Cn1cc(Cn2c(=O)c3cc(S(=O)(=O)NC4(C)CC4)ccc3n(CCC(N)=O)c2=O)cn1 [Example 273] | Condition not met

Req: Reported pIC50 at or above 6? CC1(NS(=O)(=O)c2ccc3c(c2)c(=O)n(CC#N)c(=O)n3CC2CC2)CC1 [Example 193]
Resp: Condition met

* * *

- Experimental system: Human Full Length PARG (Homo sapiens (Human), UniProt Q86W56)
- Sequence (Q86W56 whole entry): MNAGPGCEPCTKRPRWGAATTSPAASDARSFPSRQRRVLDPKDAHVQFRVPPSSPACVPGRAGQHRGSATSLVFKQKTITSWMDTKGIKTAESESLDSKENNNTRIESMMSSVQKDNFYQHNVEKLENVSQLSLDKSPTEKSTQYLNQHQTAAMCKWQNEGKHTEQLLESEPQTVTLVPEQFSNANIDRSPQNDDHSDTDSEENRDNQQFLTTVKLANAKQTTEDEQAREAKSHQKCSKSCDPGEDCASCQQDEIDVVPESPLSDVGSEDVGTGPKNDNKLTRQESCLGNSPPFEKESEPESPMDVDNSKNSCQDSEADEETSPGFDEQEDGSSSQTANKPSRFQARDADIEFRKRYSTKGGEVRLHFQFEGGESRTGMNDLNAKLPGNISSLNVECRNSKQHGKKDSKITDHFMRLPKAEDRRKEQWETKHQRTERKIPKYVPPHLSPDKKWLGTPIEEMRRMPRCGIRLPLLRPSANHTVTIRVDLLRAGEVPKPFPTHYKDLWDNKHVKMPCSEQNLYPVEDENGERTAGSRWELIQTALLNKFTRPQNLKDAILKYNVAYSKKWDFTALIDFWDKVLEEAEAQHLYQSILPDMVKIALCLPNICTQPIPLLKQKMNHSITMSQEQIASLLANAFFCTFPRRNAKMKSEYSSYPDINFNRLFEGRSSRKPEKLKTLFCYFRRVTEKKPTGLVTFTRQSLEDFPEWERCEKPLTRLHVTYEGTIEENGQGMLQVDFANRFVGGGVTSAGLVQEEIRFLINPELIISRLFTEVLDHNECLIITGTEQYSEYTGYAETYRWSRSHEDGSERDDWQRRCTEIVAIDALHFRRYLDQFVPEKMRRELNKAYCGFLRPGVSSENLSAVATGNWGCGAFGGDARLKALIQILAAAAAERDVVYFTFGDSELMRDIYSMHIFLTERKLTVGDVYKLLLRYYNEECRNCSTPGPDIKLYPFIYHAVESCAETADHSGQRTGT
- Measurement notes: PARG enzyme assay (TR-FRET)
- Assay type: biochemical
- Conditions used: read-out: PARG Biochem IC50 Geomean
Please respond with reported IC50 for every item in the list.
Give bare numbers, in µM.

These recorded examples may help you get a feel for the data.
Compound | Experimental system | Observed measurement
Cc1cc(Cn2nc(Cc3ccccc3)c3ccc(S(=O)(=O)NC4(C)CC4)cc3c2=O)on1 [Example 298] | Human Full Length PARG (Homo sapiens (Human), UniProt Q86W56) | 0.648
Cn1c(=O)n(Cc2cnc(NC(=O)OC(C)(C)C)s2)c(=O)c2cc(S(=O)(=O)NC3(C)CC3)ccc21 [Example 214] | Human Full Length PARG (Homo sapiens (Human), UniProt Q86W56) | 0.411
COc1cccc(Cn2c(=O)n(Cc3cnn(C)c3)c(=O)c3cc(S(=O)(=O)NC4(C)CC4)ccc32)c1 [Example 172] | Human Full Length PARG (Homo sapiens (Human), UniProt Q86W56) | 0.1
Cc1cc(Cn2ccc3ccc(S(=O)(=O)NC4(C)CC4)cc3c2=O)on1 [Example 242] | Human Full Length PARG (Homo sapiens (Human), UniProt Q86W56) | 7.35
Cc1cc(Cn2cc(C(=O)C3CC3)c3ccc(S(=O)(=O)NC4(C)CC4)cc3c2=O)on1 [Example 311] | Human Full Length PARG (Homo sapiens (Human), UniProt Q86W56) | 0.549
Cn1cc(Cn2c(=O)c3cc(S(=O)(=O)NC4(C)CC4)c(F)cc3n(Cc3cnn(C)c3)c2=O)cn1 [Example 393] | Human Full Length PARG (Homo sapiens (Human), UniProt Q86W56) | 0.028
Cn1cc(Cn2c(=O)c3cc(S(=O)(=O)NC4(C)CC4)ccc3n(CC3CCOC3)c2=O)cn1 (centres unmarked) [Example 259] | Human Full Length PARG (Homo sapiens (Human), UniProt Q86W56) | 0.108
Cc1cc(Cn2cc(Cl)c3ccc(S(=O)(=O)NC4(C)CC4)cc3c2=O)on1 [Example 209] | Human Full Length PARG (Homo sapiens (Human), UniProt Q86W56) | 1.64
Cc1cc(COc2nc3ccc(S(=O)(=O)NC4(C)CC4)cc3c(=O)n2Cc2c(C)noc2C)n(C)n1 [Example 167] | Human Full Length PARG (Homo sapiens (Human), UniProt Q86W56) | 0.7
Cc1noc(C)c1Cn1c(=O)c2cc(S(=O)(=O)NC3(C)CC3)ccc2n(CC2CC2)c1=O [Example 158] | Human Full Length PARG (Homo sapiens (Human), UniProt Q86W56) | 0.092

Batch of 5 compounds: report IC50 for each.
1. Cc1cc(Cn2nc(C(=O)NCC3CCOCC3)c3ccc(S(=O)(=O)NC4(C)CC4)cc3c2=O)on1 [Example 331]
2. Cc1cc(Cn2nc(CC3CC3)c3ccc(S(=O)(=O)NC4(C)CC4)cc3c2=O)on1 [Example 318]
3. Cn1c(=O)c2cc(S(=O)(=O)NC3(C)CC3)ccc2n(Cc2c(F)cccc2F)c1=O [Eample 75]
4. CC#CCn1c(=O)n(C)c(=O)c2cc(S(=O)(=O)NC3(C)CC3)ccc21 [Example 136]
5. Cn1cc(Cn2c(=O)c3cc(S(=O)(=O)NC4(C)CC4)ccc3n(CC3COC3)c2=O)cn1 [Example 297]

Resp:
1: 0.795; 2: 0.352; 3: 0.714; 4: 1.11; 5: 0.069

Batch of 2 compounds: report IC50 for each.
1. CC1(NS(=O)(=O)c2ccc3nc(C4CC4)[nH]c(=O)c3c2)CC1 [Example 54]
2. Cn1c(=O)n(CC2CC2(F)F)c(=O)c2cc(S(=O)(=O)NC3(C)CC3)ccc21 (centres unmarked) [Example 50]

Resp:
2.42
3.41

* * *

- System: PARG in HeLa cell line
- Measurement notes: PARG cell assay (PAR chain immunofluorescence after MMS)
- Format: cell-based
- Conditions used: HeLa cells, MMS treatment; read-out: PARG Cell IC50
Flag rule - IC50 less than 500 nM flags criterion met; the remaining entries get criterion not met.

Please review the entries below; each comes with its answer.
Smiles representation | Discrete label
Cc1cc(Cn2c(=O)c3cc(S(=O)(=O)NC4(CF)CC4)ccc3n(Cc3ncn(C)n3)c2=O)on1 | criterion not met
Cn1cc(Cn2c(=O)c3cc(S(=O)(=O)NC4(CF)CC4)ccc3n(Cc3cn(C)nn3)c2=O)cn1 | criterion not met
Cn1cc(Cn2c(=O)c3cc(S(=O)(=O)NC4(CF)CC4)ccc3n(CCc3ccccn3)c2=O)cn1 | criterion not met
CC1(NS(=O)(=O)c2ccc3[nH]c(=O)n(CCC#N)c(=O)c3c2)CC1 | criterion not met
Cn1cc(Cn2c(=O)[nH]c3ccc(S(=O)(=O)NC4(C(F)F)CC4)cc3c2=O)cn1 | criterion not met

Req: Take the molecule Cn1cc(Cn2c(=O)[nH]c3ccc(S(=O)(=O)NC4(CF)CC4)cc3c2=O)cn1 and say whether its IC50 is less than 500 nM.
Resp: criterion not met

Req: Take the molecule Cn1cc(Cn2c(=O)c3cc(S(=O)(=O)NC4(CF)CC4)ccc3n(CCn3cccn3)c2=O)cn1 and say whether its IC50 is less than 500 nM.
Resp: criterion not met

Req: Take the molecule CC[C@H](C)Cn1c(=O)n(Cc2cc(C)no2)c(=O)c2cc(S(=O)(=O)NC3(C)CC3)ccc21 and say whether its IC50 is less than 500 nM.
Resp: criterion met

Req: Take the molecule C#CCn1c(=O)n(Cc2cc(C)no2)c(=O)c2cc(S(=O)(=O)NC3(CF)CC3)ccc21 and say whether its IC50 is less than 500 nM.
Resp: criterion met

Req: Take the molecule Cn1cc(Cn2c(=O)c3cc(S(=O)(=O)NC4(CF)CC4)ccc3n(Cc3cnsc3)c2=O)cn1 and say whether its IC50 is less than 500 nM.
Resp: criterion met

Req: Take the molecule Cn1cc(Cn2c(=O)c3cc(S(=O)(=O)NC4(CF)CC4)ccc3n(Cc3ncnn3C)c2=O)cn1 and say whether its IC50 is less than 500 nM.
Resp: criterion not met

Req: Take the molecule Cc1cc(Cn2c(=O)c3cc(S(=O)(=O)NC4(CF)CC4)ccc3n(Cc3csc(C)n3)c2=O)on1 and say whether its IC50 is less than 500 nM.
Resp: criterion met

* * *

- Test system: PARG in HeLa cell line
- Measurement notes: PARG cell assay (PAR chain immunofluorescence after MMS)
- Format: cell-based
- Conditions used: Homo sapiens; HeLa cells, MMS 50 μg/mL; read-out: PARG Cell IC50 Geomean
Readout kind: IC50 (nM)
Numbers only, in nM.

These recorded examples may help you get a feel for the data.
Compound | Observed measurement
Cn1c(=O)c2cc(S(=O)(=O)NC3(C)CC3)ccc2n(CC2CC2(F)F)c1=O (centres unmarked) | 591
Cc1cc(Cn2c(=O)c3cc(S(=O)(=O)NC4(C)CC4)ccc3n(CC3CC3)c2=O)on1 | 49
Cc1ncc(Cn2c(=O)[nH]c3ccc(S(=O)(=O)NC4(C)CC4)cc3c2=O)s1 | 481
Cn1cc(Cn2c(=O)c3cc(S(=O)(=O)NC4(C)CC4)ccc3n(CC3(C)COC3)c2=O)cn1 | 226
Cc1cc(Cn2c(=O)c3cc(S(=O)(=O)NC4(C)CC4)ccc3n(CCCN(C)C)c2=O)on1 | 310
Cn1cc(Cn2c(=O)c3cc(S(=O)(=O)NC4(C)CC4)ccc3n(CCC3CC3)c2=O)cn1 | 70
Cn1cc(Cn2c(=O)c3cc(S(=O)(=O)NC4(C)CC4)ccc3n(CC3CCSCC3)c2=O)cn1 | 90
Cc1cc(Cn2c(=O)c3cc(S(=O)(=O)NC4(C)CC4)ccc3n(CC3CCOCC3)c2=O)on1 | 195
Cn1nc(C(C)(C)C)cc1Cn1c(=O)n(C)c(=O)c2cc(S(=O)(=O)NC3(C)CC3)ccc21 | 518
CN(C)CCCn1c(=O)n(Cc2cnn(C)c2)c(=O)c2cc(S(=O)(=O)NC3(C)CC3)ccc21 | 285

Batch of 4 compounds: report IC50 for each.
1. Cn1cc(Cn2c(=O)c3cc(S(=O)(=O)NC4(C)CC4)ccc3n(CC3CN(C(=O)OC(C)(C)C)C3)c2=O)cn1
2. Cn1cc(Cn2c(=O)c3cc(S(=O)(=O)NC4(C)CC4)ccc3n(CC3(F)COC3)c2=O)cn1
3. Cc1cc(Cn2c(=O)c3cc(S(=O)(=O)NC4(C)CC4)ccc3n(CC3CCOC3)c2=O)on1 (centres unmarked)
4. Cc1cc(Cn2c(=O)c3cc(S(=O)(=O)NC4(C)CC4)ccc3n(Cc3nc(C)no3)c2=O)on1

Resp:
1. 218
2. 328
3. 217
4. 297
